The origin of these recorded values is patent US20240158475A1.

Task for the reader: assign each of the following binders its reported kon.
Molecular target: DN-III quality control recombinant protein (produced by Fapon Biotech InC.) (dengue virus)
Assay: BLI, AMC sensor, antibody captured
Answers are plain numbers, in M⁻¹ s⁻¹.

- BINDER: "Mutation 1-39 (antibody, V domains shown) VH: EVQLQQSGTELVRPGALVKLSCKASGFNIKDYYVHWVKQRPRQGLEWIGWIDPENGKTIYDPKFQDKASITSDTSTNTAYLQLRSLTSEDTAVYYCVTAYFRFVYWGQGTLVTVSA VL: QIVLTQSPAIMSAFPGERVTMTCSASTSVRYMYWHQQKPGSSPRLLIYDTSNLASGVPVRFSGSGSGTSYSLTISRDEAMDAATYYCQQWSSFPRTFGGGTKLEIKR"
  VALUE_KIND: "kon"
  VAL: 45100

Record kon for all entries; do not skip any.
1. Mutation 1-15 (antibody, V domains shown) VH: EVQLQQSGTELVRPGALVKLSCKASGFNIKDYYVHWVKQRPRQGLEWIGWIDPENGKTIYDPKFQDKASITSDTSTNTAYLQLRSLTSEDTAVYYCVTAYYRFVYWGQGTLVTVSA VL: QIVLTQSPAIMSAFPGERVTMTCSASTSVRYMYWHQQKPGSSPRLLIYDTSNIASGVPVRFSGSGSGTSYSLTISRDEAMDAATYYCQQWSSTPRTFGGGTKLEIKR
2. Mutation 1-20 (antibody, V domains shown) VH: EVQLQQSGTELVRPGALVKLSCKASGFNIKDYYVHWVKQRPRQGLEWIGWIDPENGKTLYDPKFQDKASITSDTSTNTAYLQLRSLTSEDTAVYYCVSAYYRFVYWGQGTLVTVSA VL: QIVLTQSPAIMSAFPGERVTMTCSASSSVRYMYWHQQKPGSSPRLLIYDTSNVASGVPVRFSGSGSGTSYSLTISRDEAMDAATYYCQQWSSTPRTFGGGTKLEIKR

45200
40900

Report kon for every entry below.
1. Mutation 1-25 (antibody, V domains shown) VH: EVQLQQSGTELVRPGALVKLSCKASGFNIKDYYIHWVKQRPRQGLEWIGWIDPENGKTIYDPKFQDKASITSDTSTNTAYLQLRSLTSEDTAVYYCVTAYFRFVYWGQGTLVTVSA VL: QIVLTQSPAIMSAFPGERVTMTCSASSSVRYMYWHQQKPGSSPRLLIYDTSNLASGVPVRFSGSGSGTSYSLTISRDEAMDAATYYCQQWSSTPRTFGGGTKLEIKR
2. Mutation 1-24 (antibody, V domains shown) VH: EVQLQQSGTELVRPGALVKLSCKASGFNIKDYYVHWVKQRPRQGLEWIGWIDPENGKTLYDPKFQDKASITSDTSTNTAYLQLRSLTSEDTAVYYCVTAYVRFVYWGQGTLVTVSA VL: QIVLTQSPAIMSAFPGERVTMTCSASTSVRYMYWHQQKPGSSPRLLIYDTSNIASGVPVRFSGSGSGTSYSLTISRDEAMDAATYYCQQWSSYPRTFGGGTKLEIKR

33900
37700
